system.tested: T1, formyl peptide receptor 2 (FPR2) (UniProt P25090 1-351, limits assumed)
T1 sequence (looked up): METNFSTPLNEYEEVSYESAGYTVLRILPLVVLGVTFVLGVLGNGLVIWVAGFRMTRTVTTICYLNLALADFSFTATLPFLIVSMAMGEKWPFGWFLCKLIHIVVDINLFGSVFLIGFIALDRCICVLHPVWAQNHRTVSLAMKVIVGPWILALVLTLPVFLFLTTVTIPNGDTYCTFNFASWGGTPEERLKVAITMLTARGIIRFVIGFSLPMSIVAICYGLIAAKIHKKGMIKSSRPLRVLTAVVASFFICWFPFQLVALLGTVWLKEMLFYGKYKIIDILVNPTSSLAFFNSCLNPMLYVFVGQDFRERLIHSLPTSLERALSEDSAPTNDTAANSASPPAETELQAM
test.method.notes: cell-based or functional assay
Quick reference: EC50 for [Ca2+] of the listed items.

[Q] In one line, give reported EC50 for [Ca2+] of the entry HMKYKVM (HELM PEPTIDE1{[CCCCCCCC(=O)[*:2]].H.M.K.Y.K.V.[dM].[am]}$$$$V2.0; SMILES CCCCCCCC(=O)N[C@@H](Cc1c[nH]cn1)C(=O)N[C@@H](CCSC)C(=O)N[C@@H](CCCCN)C(=O)N[C@@H](Cc1ccc(O)cc1)C(=O)N[C@@H](CCCCN)C(=O)N[C@H](C(=O)N[C@H](CCSC)C(N)=O)C(C)C) [peptide of SEQ ID NO 24] .
[A] < 10 nM

[Q] Provide one value: measured EC50 for [Ca2+] of MKYKVM (HELM PEPTIDE1{[CCCC(=O)[*:2]].M.K.Y.K.V.[dM].[am]}$$$$V2.0; SMILES CCCC(=O)N[C@@H](CCSC)C(=O)N[C@@H](CCCCN)C(=O)N[C@@H](Cc1ccc(O)cc1)C(=O)N[C@@H](CCCCN)C(=O)N[C@H](C(=O)N[C@H](CCSC)C(N)=O)C(C)C) [peptide of SEQ ID NO 19]
[A] < 10 nM

[Q] Please supply the value of reported EC50 for [Ca2+] for the item HKYKPM (HELM PEPTIDE1{[CCCCCCCC(=O)[*:2]].H.K.Y.K.P.[dM].[am]}$$$$V2.0; SMILES CCCCCCCC(=O)N[C@@H](Cc1c[nH]cn1)C(=O)N[C@@H](CCCCN)C(=O)N[C@@H](Cc1ccc(O)cc1)C(=O)N[C@@H](CCCCN)C(=O)N1CCC[C@H]1C(=O)N[C@H](CCSC)C(N)=O) [peptide of SEQ ID NO 149]
[A] < 10 nM
